Test system: OVCAR-4 ovarian
Assay Info: NCI tumour cell line growth inhibition, 48 h
Measured Metric: TGI

**Query** Find TGI (OVCAR-4 ovarian) for the entry Nc1ccc2c(c1)C(=O)c1ccc(F)cc1-2
**Result** > 100 µM

**Query** Lookup: TGI / OVCAR-4 ovarian / O=C(N[C@H](c1ccc(Cl)c(Cl)c1)C1CNC1)c1ccc2cnccc2c1
**Result** 19.4 µM

**Query** Please provide the recorded TGI for Nc1nnc2nc(CC(=O)/C=C/c3ccccc3)c(=O)[nH]n12 , tested on OVCAR-4 ovarian.
**Result** > 100 µM

**Query** I'm curious: which TGI was measured for Nc1nc(-c2ccccc2)c(-c2ccccc2)c(-c2nc(N)nc(-c3ccccc3)c2-c2ccccc2)n1 tested on OVCAR-4 ovarian?
**Result** > 100 µM

**Query** Report TGI for Cc1cc2c3ccccc3n(C)c2c2c1C(=O)c1ccccc1C2=O tested on OVCAR-4 ovarian.
**Result** 51.4 µM

**Query** Request body: readout TGI, system OVCAR-4 ovarian, query O=C1C(NS(=O)(=O)c2ccccc2)=C(n2cnc3ccccc32)C(=O)c2ccccc21 . Return the value.
**Result** > 100 µM

**Query** Item CCN1CCN(CCOc2ccc(CNc3ccc4nc(CCC5CCCCC5)[nH]c4c3)cc2)CC1 with OVCAR-4 ovarian - TGI?
**Result** 11.1 µM

**Query** Lab note: need TGI with OVCAR-4 ovarian for entry NC(CCCCCP(=O)(O)O)C(=O)O (configuration not stated) , please look it up.
**Result** > 100 µM

**Query** Hi! What's the reported TGI for C=CCN1CCC(OC(=O)C(O)(/C=C\CC)C2CCCC2)CC1 (configuration not stated) on OVCAR-4 ovarian?
**Result** > 100 µM

**Query** Short answer please: TGI, OVCAR-4 ovarian, entry Oc1c(C(O)(c2ccccc2)c2ccc3ccccc3c2O)ccc2ccccc12
**Result** > 47.8 µM

**Query** Entry CN(C)C(=S)Nc1nnc(NC23CC4CC(CC(C4)C2)C3)s1 , system OVCAR-4 ovarian: what TGI was measured?
**Result** 32.4 µM

**Query** Hello, I am looking for reported TGI with OVCAR-4 ovarian for CC1=CC(c2ccccc2)OP1(=O)c1ccccc1 (configuration not stated) . Could you help?
**Result** > 100 µM

**Query** Tell me reported TGI for Cc1ccc(/C=C(\C#N)n2nnc3cc(Cl)c(Cl)cc32)cc1 , tested with OVCAR-4 ovarian.
**Result** 81.5 µM

**Query** What reported TGI corresponds to C=C1CC[C@@H]2C(C)(C)[C@@H](O)CC[C@@]2(C)[C@@H]1COc1ccc2ccc(=O)oc2c1 on OVCAR-4 ovarian?
**Result** 21.6 µM

**Query** API: value(readout= TGI, system= OVCAR-4 ovarian, query= O=C1Cc2cc(CCn3ccnc3)c(Cl)cc2N1 )
**Result** > 100 µM

**Query** API: value(readout= TGI, system= OVCAR-4 ovarian, query= Clc1cc2nc(C3CCCO3)[nH]c2cc1Cl (configuration not stated) )
**Result** > 100 µM

**Query** What is its TGI for OVCAR-4 ovarian? Entry: CC(=O)Nc1ccc2nncnc2c1
**Result** > 100 µM

**Query** For OVCAR-4 ovarian, provide TGI of COc1ccc(/C=C/c2cc(OC)c(O[Si](C)(C)C(C)(C)C)c(OC)c2)cc1 please.
**Result** > 100 µM

**Query** Lab note: need TGI for COc1ccc2c(c1)C(=O)c1c-2n(CCCN=[N+]=[N-])c(=O)c2ccccc12 on OVCAR-4 ovarian, anyone have it?
**Result** > 100 µM

**Query** Recorded TGI for O=C1CCCCC/C=C2/CC[C@H](Sc3ccccc3)[C@@H]12 with OVCAR-4 ovarian, please?
**Result** > 100 µM

**Query** Please tell me: TGI of NC(=O)c1ccccc1NC(=O)C(=O)C(C(=O)c1ccc2ccccc2c1)C1OC(=O)c2ccccc21 (configuration not stated) , system OVCAR-4 ovarian?
**Result** 32.9 µM

**Query** Identify the measured TGI of O=C(Nc1cccc(Cl)c1)Nc1cccc(Cl)c1 for OVCAR-4 ovarian.
**Result** > 100 µM

---

Kindly supply the reported TGI values for the records listed here.
System: HT29 colon
Assay Info: NCI tumour cell line growth inhibition, 48 h

**Query** Recorded TGI for O=C(Nc1cccc(Cl)c1)Nc1cccc(Cl)c1 , please?
**Result** > 100 µM

**Query** Fill in the blank: the reported TGI of C=CCCCCOC1C=CC(OC(C)=O)C(COC(C)=O)O1 (stereo unspecified) is ____.
**Result** > 100 µM

**Query** // TGI lookup, key: O=C(NCCCN1CCN(CCCNC(=O)c2cnc3ccccc3n2)CC1)c1cnc2ccccc2n1
**Result** > 100 µM

**Query** Reported TGI, compound C1CNCCN2CCCNCCN(C1)CC2 : ____
**Result** > 100 µM

**Query** Would you kindly share the measured TGI for COCCc1c(C)c(C#N)c2n(C)c3ccccc3n2c1=O ?
**Result** > 10 µM

**Query** # get_value(readout='TGI', item= CCc1cccc(C(C)CC)c1N=C(NC(=O)c1ccccc1C(=O)NC(=Nc1c(CC)cccc1C(C)CC)SC)SC (stereo unspecified) )
**Result** > 100 µM

**Query** Name the recorded TGI for O=C(N/N=C(/COc1cccc(Cl)c1)N=Cc1ccncc1)c1ccncc1 .
**Result** > 100 µM

**Query** State the recorded TGI for this entry: CS(C)(=O)=N/C=C\C(=O)C(Cl)(Cl)Cl
**Result** > 100 µM

**Query** Fill in the blank: the reported TGI of CSCCC(NC(=O)C(Cc1ccccc1)NC(=O)CNC(=O)CNC(=O)C(N)Cc1ccc(O)cc1)C(=O)O (stereo unspecified) is ____.
**Result** > 100 µM

**Query** I have this compound here, COc1ccc(CN2c3ccccc3Sc3ccccc32)cc1F , and I need its recorded TGI.
**Result** > 100 µM

**Query** Fill in: TGI of C#CCNC(=O)CCC(N)C(=O)O (stereo unspecified) is ___
**Result** > 100 µM

---

System: K-562 leukemia
Assay Info: NCI tumour cell line growth inhibition, 48 h
Measured Metric: TGI

**Query** Item: O=C(NCCCN1CCN(CCCNC(=O)c2cnc3ccccc3n2)CC1)c1cnc2ccccc2n1 Test system: K-562 leukemia Read-out: TGI Value: ?
**Result** > 100 µM

**Query** For the record O=C1NC(=NCC(CO)c2ccccc2)S/C1=C\c1ccc2ncccc2c1 (stereo unspecified) , what value of TGI is listed for K-562 leukemia?
**Result** > 25 µM

**Query** Notebook entry, K-562 leukemia assay: TGI of CCCCC1Cc2cc(O)ccc2-c2n1c1cc(O)ccc1[n+]2C (stereo unspecified) (tested in a mixture with another compound) = ?
**Result** > 100 µM

**Query** Lab note: need TGI with K-562 leukemia for entry NNC(N)=Nc1cccc2ccccc12 , please look it up.
**Result** > 100 µM

**Query** Value wanted: TGI (K-562 leukemia) of entry COc1ccc(C2CCc3nc4nc(N)nc(N)c4cc3C2)cc1 (stereo unspecified)
**Result** > 100 µM

**Query** Under K-562 leukemia: TGI value of CCCCc1ccc(Nc2nc3c(ncn3C3OC(COC(C)=O)C(OC(C)=O)C3OC(C)=O)c(=O)[nH]2)cc1 (stereo unspecified) ?
**Result** 38.5 µM

**Query** GET /values?readout=TGI&system=K-562 leukemia&item= O=C1CCCCC/C=C2/CC[C@H](Sc3ccccc3)[C@@H]12
**Result** > 100 µM

**Query** Which measured TGI belongs to O=C(N[C@H](c1ccc(Cl)c(Cl)c1)C1CNC1)c1ccc2cnccc2c1 , tested on K-562 leukemia?
**Result** 14 µM

**Query** What measured TGI is associated with C/C(=N\NC(=O)CC(=O)Nc1ccc(C)cc1)c1cc2ccccc2oc1=O on K-562 leukemia?
**Result** > 100 µM

**Query** What value of TGI on K-562 leukemia does COc1ccc2c(c1)/C(=C(\C(Cl)=C(Cl)Cl)[N+](=O)[O-])N2 have?
**Result** > 100 µM

**Query** Please provide the recorded TGI for O=c1[nH]c(=S)[nH]c2c1sc(=S)n2-c1ccccc1 , tested on K-562 leukemia.
**Result** > 100 µM

**Query** Recorded TGI for CCN(CC)CCN1c2ccccc2Sc2ccc3ccccc3c21 with K-562 leukemia, please?
**Result** 15.7 µM

**Query** Provide the documented TGI with K-562 leukemia as the system for CCN(CC)CCN1C(=O)c2cccc3c(-c4ccc5c(c4)ncn5C4CCCCC4)ccc(c23)C1=O
**Result** 3.97 µM

**Query** Field: TGI (K-562 leukemia). Entry: CCCCCCN(CCCCCC)CCCNc1nccc2ccccc12
**Result** 5.18 µM

**Query** Provide value of TGI for this record tested with K-562 leukemia: CCOC(=O)C1=C(Nc2ccccc2)OC/C1=N\NC(=O)Cc1ccccc1
**Result** > 50 µM

**Query** I'm curious: which TGI was measured for COC(=O)[C@]12CC[C@@H](C)[C@H](C)[C@@H]1C1=CC[C@@H]3[C@@]4(C)C[C@@H](OC(=O)c5ccco5)[C@H](O)[C@@](C)(CO)[C@@H]4[C@H](O)C[C@@]3(C)[C@]1(C)CC2 tested on K-562 leukemia?
**Result** 5.42 µM

**Query** # value lookup — system K-562 leukemia, readout TGI, item CCC(=O)C1=C(OC(C)=O)C2Cc3c(n(C)c4ccccc34)C(C1)N2C (stereo unspecified)
**Result** > 100 µM

**Query** Hi! What's the reported TGI for CCOC(=O)/C(C(=S)NC)=C(/N)N1CCCC1 on K-562 leukemia?
**Result** > 100 µM

**Query** Missing value: TGI, K-562 leukemia, entry O=C(CC(=O)c1ccncc1)c1ccccc1 . Fill in?
**Result** > 100 µM

**Query** Report TGI for O=C(c1cc(=O)c2ccc(O)cc2o1)c1ccc(Cl)cc1Cl tested on K-562 leukemia.
**Result** > 35.5 µM

**Query** Observed TGI on K-562 leukemia for CC(C)OP(=O)(OC(C)C)C(C(F)(F)F)C(F)(F)F , please.
**Result** > 100 µM

**Query** Record CC1=CC(c2ccccc2)OP1(=O)c1ccccc1 (stereo unspecified) : what is its TGI with K-562 leukemia?
**Result** > 100 µM

**Query** Lab note: need TGI with K-562 leukemia for entry N#CS/C(C(Cl)=C(Cl)Cl)=C(/Cl)[N+](=O)[O-] , please look it up.
**Result** 1.62 µM

**Query** Checklist item: TGI tested on K-562 leukemia, entry CC(=O)NNc1nc(C)c(C(=O)NNC(=O)C(=O)Nc2ccc(C)c(C)c2)s1 , value?
**Result** > 100 µM

**Query** Enter reported TGI observed with K-562 leukemia for COc1cc2c(cc1C)NC(=O)/C2=C/c1c(Cl)[nH]c2cc(C)c(OC)cc12
**Result** > 41.6 µM

**Query** // map CCN1CCC[C@H]1c1cc(O)c2c(c1OC)C[C@H]1C[C@H]3[C@H](N)C(=O)C(C(N)=O)=C(O)[C@@]3(O)C(=O)C1=C2O to recorded TGI (system: K-562 leukemia)
**Result** > 100 µM

**Query** Form entry - test system: K-562 leukemia; read-out: TGI; compound: CC1=C(C)C(=O)OC(C(C)(O)C2(O)CCC3(O)C4CC(Cl)C5(O)C(O)C=CC(=O)C5(C)C4CCC32C)C1 (stereo unspecified)
**Result** > 100 µM

**Query** Lab note: need TGI with K-562 leukemia for entry NC(=O)c1ccccc1NC(=O)C(=O)C(C(=O)c1ccc2ccccc2c1)C1OC(=O)c2ccccc21 (stereo unspecified) , please look it up.
**Result** 83.9 µM

**Query** Query the reported TGI for K-562 leukemia; item: Cc1c2c(c(C)c3c[n+](C)ccc13)Oc1ccccc1O2
**Result** 35.4 µM

**Query** Provide the documented TGI with K-562 leukemia as the system for N#Cc1ccc(Oc2nccc(-c3c(-c4ccc(F)cc4)ncn3C3CCNCC3)n2)cc1
**Result** 12.4 µM

**Query** # value lookup — system K-562 leukemia, readout TGI, item CSC1=N/C(=C\c2cccs2)C(=O)N1CN1CCOCC1
**Result** > 100 µM

**Query** I'm curious: which TGI was measured for CCN1CCN(CCOc2ccc(CNc3ccc4nc(CCC5CCCCC5)[nH]c4c3)cc2)CC1 tested on K-562 leukemia?
**Result** 2.69 µM

**Query** Request body: readout TGI, system K-562 leukemia, query CSC1=Nc2c(c(C)c(-c3ccccc3)n2COC(CO)CO)C2=NC(=O)C(C)N12 (stereo unspecified) . Return the value.
**Result** > 100 µM

**Query** Value wanted: TGI (K-562 leukemia) of entry N=C(N)n1ncc(Cl)c(Cl)c1=O
**Result** 6.36 µM

**Query** Recall the recorded TGI for COC(=O)C(C(=O)C(=O)Nc1cccc(O)c1)c1nc2ccc(Cl)cc2[nH]c1=O (stereo unspecified) with K-562 leukemia and state it.
**Result** > 100 µM

**Query** What reported TGI corresponds to COC(=O)CCC(NC(=S)N/N=C(\C)c1ccccn1)C(=O)OC (stereo unspecified) on K-562 leukemia?
**Result** > 100 µM

**Query** // fetch K-562 leukemia TGI for COc1ccc(/C=C2/C(=O)N(C(=O)c3ccccc3O)N=C2C)cc1OC
**Result** > 100 µM

**Query** Record lookup: for K-562 leukemia, what TGI belongs to O=[N+]([O-])c1cc2n[nH]nc2c2nonc12 ?
**Result** > 100 µM

**Query** I'm curious: which TGI was measured for CC(C)=CC/C=C(/C)[C@H]1CC[C@]2(C)[C@@H]1CC[C@@H]1[C@@]3(C)CCC(=O)NC(C)(C)[C@@H]3CC[C@]12C tested on K-562 leukemia?
**Result** 88.2 µM

**Query** Test system K-562 leukemia; read-out TGI; what value for Cc1cc2c3ccccc3n(C)c2c2c1C(=O)c1ccccc1C2=O ?
**Result** 55.1 µM

**Query** Can you look up TGI on K-562 leukemia for O=C(O)CC(NC(=O)C(F)(F)F)C(=O)NC1Cc2ccccc2OC1=O (stereo unspecified) ?
**Result** > 100 µM
